Origin of measurements: patent US11905286B2

- assayedSystem: TEM-1 (Escherichia coli, UniProt P62593)
- Sequence (P62593 24-286 limits assumed): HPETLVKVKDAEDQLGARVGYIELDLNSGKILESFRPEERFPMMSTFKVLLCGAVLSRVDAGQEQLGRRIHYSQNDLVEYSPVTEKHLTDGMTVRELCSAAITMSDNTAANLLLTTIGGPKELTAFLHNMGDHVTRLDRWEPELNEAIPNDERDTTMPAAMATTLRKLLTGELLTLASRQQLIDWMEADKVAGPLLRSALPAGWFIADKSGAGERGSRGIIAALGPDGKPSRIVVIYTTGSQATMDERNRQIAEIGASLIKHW
propertyMeasured: IC50

Use the examples below as a reference point.
# compound, IC50
data = [
    ("O=C1N2C[C@@H](CC[C@H]2Cl)N1OS(=O)(=O)[O-].[Na+] [Example 12, sulfate]", "< 3 nM"),
    ("O=C1N2C[C@@H](CC[C@H]2F)N1OS(=O)(=O)[O-].[Na+] [Example 10, sulfate]", "< 3 nM"),
]

Shift focus to the following entry.
Which IC50 is listed for O=C1N2C[C@@H](CC[C@@H]2F)N1OS(=O)(=O)[O-].[Na+] [Example 11, sulfate] ? > 10 nM
